# Test target: bFGF (Homo sapiens, UniProt P09038)
# Construct: purchased Scios Nova
# Sequence (P09038 134-288): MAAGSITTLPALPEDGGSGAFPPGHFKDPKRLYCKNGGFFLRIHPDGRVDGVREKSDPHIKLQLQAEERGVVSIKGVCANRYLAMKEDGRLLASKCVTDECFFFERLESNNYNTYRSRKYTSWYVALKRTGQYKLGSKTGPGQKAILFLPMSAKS
# Experiment summary: competition with 125I-heparin binding to bFGF
# Assay conditions: competition with 125I-heparin
Observable: binding to bFGF/FGF (in words)

INSERT INTO results (molecule, observable, recorded_result) VALUES
  ('O=S(=O)(O)OC[C@H]1O[C@@](COS(=O)(=O)O)(O[C@H]2O[C@H](COS(=O)(=O)O)[C@@H](OS(=O)(=O)O)[C@H](OS(=O)(=O)O)[C@H]2OS(=O)(=O)O)[C@@H](OS(=O)(=O)O)[C@@H]1OS(=O)(=O)O [SOS, sucrose octasulfate, reference compound]', 'binding to bFGF/FGF (in words)', 'bind'),
  ('CO[C@H]1O[C@H](CO)[C@@H](O[C@@H]2O[C@H](C(=O)O)[C@@H](O)[C@H](O)[C@H]2O)[C@H](O)[C@H]1NC(C)=O [Di-3, β-D-GlcA-(1→4)-α-D-GlcNAc-1→OMe]', 'binding to bFGF/FGF (in words)', 'bind'),
  ('CO[C@H]1O[C@H](CO)[C@@H](O[C@@H]2O[C@H](C(=O)O)[C@@H](O)[C@H](O)[C@H]2O)[C@H](O)[C@H]1NS(=O)(=O)O [Di-4, β-D-GlcA-(1→4)-α-D-GlcNSO3 -1→OMe]', 'binding to bFGF/FGF (in words)', 'bind');
